# tested.target: HIV-1 Env of pseudovirus Du172.17 (HIV-1)
# protocol.description: cell-based or functional assay
Assign neutralization IC80 to each entry below.
Only the number, expressed in µg/mL, is required.

Inquiry: Complete the entry with neutralization IC80 for MS-83 (antibody, V domains shown) VH: QVQLVQSGPEVRKPGTSVKVSCKAPGNTLKTYDLHWVRSVPGQGLQWMGWISHEGDKKVIVERFKAKVTIDWDRSTNTAYLQLSGLTSGDTAVYYCAKGSKHRLRDYALYDDEGALNWAVDVDYLSNLEFWGQGTAVTVSS VL: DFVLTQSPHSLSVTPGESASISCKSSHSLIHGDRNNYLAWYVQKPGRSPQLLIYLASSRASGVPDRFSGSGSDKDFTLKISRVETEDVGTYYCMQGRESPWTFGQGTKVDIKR
Reply text: 7.4

Inquiry: Return the recorded neutralization IC80 value; entry: MS-76 (antibody, V domains shown) VH: QVQLVQSGPEVRKPGTSVKVSCKAPGYTLKTYDLHWVRSVPGQGLQWMGWISHEGDKKVIVERFKAKVTIDWDRSTNTAYLQLSGLTSGDTAVYYCAKGSKHRLRDYALYDDDGALNWAVDVDYLSNLEFWGQGTAVTVSS VL: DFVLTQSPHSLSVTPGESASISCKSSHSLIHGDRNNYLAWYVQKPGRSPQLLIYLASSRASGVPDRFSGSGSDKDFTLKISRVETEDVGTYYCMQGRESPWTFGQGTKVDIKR
Reply text: 9.68
